Recorded IC50, one value per entry.
Target: IDO1 enzyme (Homo sapiens)
Sequence (P14902 whole entry): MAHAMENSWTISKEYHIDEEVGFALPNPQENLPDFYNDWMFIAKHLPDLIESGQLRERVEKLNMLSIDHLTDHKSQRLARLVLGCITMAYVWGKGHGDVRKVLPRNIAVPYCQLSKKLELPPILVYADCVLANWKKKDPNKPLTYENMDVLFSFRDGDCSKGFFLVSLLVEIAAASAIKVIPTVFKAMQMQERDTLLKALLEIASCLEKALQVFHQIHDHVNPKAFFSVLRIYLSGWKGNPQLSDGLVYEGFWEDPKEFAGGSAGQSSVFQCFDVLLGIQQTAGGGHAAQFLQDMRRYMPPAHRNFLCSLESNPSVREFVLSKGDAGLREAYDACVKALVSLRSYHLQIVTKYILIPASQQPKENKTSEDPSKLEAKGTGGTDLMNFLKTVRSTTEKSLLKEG
Assay: Determination of biochemical activity of IDO1 enzyme (absorbance at 320 nm)
Settings: room temperature, 3 hours
From the text: (1) Method for Determining Biochemical Activity of IDO1 Enzyme […]

O=C(Nc1nocc1/C(=N/O)Nc1ccc(F)c(Br)c1)Nc1c[nH]c2ccccc12 ... 0.1 to 1 µM

Input: Read off the recorded IC50 for O=C(Nc1nonc1/C(=N/O)Nc1ccc(F)c(Br)c1)Nc1c[nH]c2ccccc12
Output: 0.1 to 1 µM

Input: Given COc1ccc(NC(=N)Nc2nocc2/C(=N/O)Nc2ccc(F)c(Br)c2)cc1 , respond with its IC50.
Output: 0.1 to 1 µM

Input: Dear colleague, please send me the reported IC50 for CCCNC(=O)Nc1cocc1/C(=N/O)Nc1ccc(F)c(Br)c1 when you can.
Output: 0.1 to 1 µM

Input: Consider the compound O=C(Nc1ccsc1)Nc1nonc1/C(=N/O)Nc1ccc(F)c(Br)c1 . State its measured IC50.
Output: > 1 µM

Input: Input NC1CCC(NC(=O)Nc2nocc2/C(=N/O)Nc2ccc(F)c(Br)c2)CC1 (centres unmarked) , output reported IC50.
Output: < 0.001 µM

Input: Identify the reported IC50 for the following entry. O=C(Nc1nonc1/C(=N/O)Nc1ccc(F)c(Br)c1)NC1CCOCC1
Output: < 0.001 µM

Input: Report IC50, nothing else, for this compound: N=C(Nc1nonc1/C(=N/O)Nc1ccc(F)c(Br)c1)NC1CCCCC1
Output: < 0.001 µM

Input: Look up and state reported IC50 for O=C(Nc1conc1/C(=N/O)Nc1ccc(F)c(Br)c1)NC1CCNCC1
Output: < 0.001 µM

---

target: IDO1 enzyme in the Hela cell (Homo sapiens); construct: endogenous in cells; host or cells: HeLa cells stimulated with interferon γ (100 ng/ml); experiment: Cell activity: interferon γ-stimulated Hela cells, absorbance of supernatant at 480 nm; type: cell-based; details: interferon γ 100 ng/ml, 72 hours
Form field: IC50 (one value per entry).

Observe how each entry below is paired with its result.
O=C(Nc1cccnc1)Nc1nocc1/C(=N/O)Nc1ccc(F)c(Br)c1 ... 0.1 to 1 µM
N=C(NCCN)Nc1nonc1/C(=N/O)Nc1ccc(F)c(Br)c1 ... < 0.001 µM

Input: Provide one value: measured IC50 of COc1ccc(NC(=S)Nc2conc2/C(=N/O)Nc2ccc(F)c(Cl)c2)cc1
Output: 0.1 to 1 µM

Input: Query IC50 for CS(=O)(=O)N1CCN(C(=O)Nc2nonc2/C(=N/O)Nc2ccc(F)cc2)CC1
Output: 0.1 to 1 µM

---

target: IDO1 enzyme (Homo sapiens); assay: Determination of biochemical activity of IDO1 enzyme (absorbance at 320 nm); conditions: room temperature, 3 hours
Recorded measurements of IC50, one per entry

CS(=O)(=O)NCCCNC(=O)Nc1nonc1/C(=N/O)Nc1ccc(F)c(Br)c1 [Embodiment 17] ... < 0.001 µM
O/N=C(\Nc1ccc(F)c(Br)c1)c1conc1NC(=S)Nc1ccccc1 [Embodiment 134] ... 0.1 to 1 µM

Input: Assign IC50 to the following record: O/N=C(\Nc1ccc(F)c(Br)c1)c1cocc1NC(=S)Nc1ccccc1 [Embodiment 137]
Output: 0.1 to 1 µM

Input: Using the record for O/N=C(\Nc1ccc(F)c(Cl)c1)c1nocc1NC(=S)Nc1ccccc1 [Embodiment 131] , state its measured IC50.
Output: 0.1 to 1 µM
